# measured.on: T1, corticotropin releasing factor 2 receptor
# T1 sequence (Q13324 whole entry, species assumed, looked up): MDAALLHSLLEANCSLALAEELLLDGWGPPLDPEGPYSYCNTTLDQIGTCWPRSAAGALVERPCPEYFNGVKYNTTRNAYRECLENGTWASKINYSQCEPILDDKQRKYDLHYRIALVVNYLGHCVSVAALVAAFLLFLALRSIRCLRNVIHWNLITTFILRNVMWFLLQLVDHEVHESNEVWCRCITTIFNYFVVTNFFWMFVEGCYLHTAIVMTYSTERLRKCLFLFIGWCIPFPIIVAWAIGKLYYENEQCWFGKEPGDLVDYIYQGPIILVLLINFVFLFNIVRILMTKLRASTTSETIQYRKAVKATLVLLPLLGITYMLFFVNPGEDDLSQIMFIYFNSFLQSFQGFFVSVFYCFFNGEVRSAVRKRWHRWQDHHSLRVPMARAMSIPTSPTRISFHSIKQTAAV
# assay.method.text: cell-based or functional assay
Ends that are not written are not given here.

binder	unit.abbrev	CRF2R Emax %
ZGPPISIDLPLWLLRKMIEIEKQEKEKQQAANNRLLLDTI (C-terminal amide) [SEQ ID NO 218]	%	96
DNPSLSIDVPLLLLRTLLELEKTQSQRERAEQNARIFARV-NH2 [SEQ ID NO 384]	%	97.3
ZGPPISIDLPFQLLREVIEIEKQEKEKQQAANNALLLATI (C-terminal amide) [SEQ ID NO 359]	%	100
NDDPPISIDLPLLLLRNMIEMARIENEREQAGLNAKYLAEV-NH2 [SEQ ID NO 268]	%	59
DNPSLSIDLPLLLLRTLLELARTQSQRERAEQNARIFARV-NH2 [SEQ ID NO 340]	%	100
ZGPPISIDLPYHLLRKMIEIEKQEKEKQQAANNALLLDTI (C-terminal amide) [SEQ ID NO 314]	%	99.8
